B1: LINE1-mini (parent)
chain: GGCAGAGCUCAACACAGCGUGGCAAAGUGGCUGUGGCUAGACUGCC

- Variants of: B1
- ASSAY_NOTES: self-cleavage, relative activity (ratio to wild type); higher = more cleavage; in vitro, sequencing; the parent is a self-cleaving ribozyme
Is self-cleavage at least 0.07? Then Y. If not, N.

> print(dat)
       mutant  category.label
 1    G5A A6G               Y
 2  A11G C15G               N
 3  G44U C45G               Y
 4  G22U U38C               Y
 5  G30C G40C               Y
 6   G5U C18G               N
 7  G22A U43G               N
 8  A26U C31G               Y
 9  G22C U34C               Y
10  G21A G29C               Y
11  C10A G36C               N
12  A11U C46U               Y
13  C13A G33U               N
14  A25G U38G               N
15   G2C U34C               N
16   G1A G29A               Y
17   C8A G33C               Y
18  G29U A39C               Y
19  A11C A26G               N
20   A6U G35C               Y
21  A14G C42U               Y
22  G21C A24U               Y
23  A11C G33C               N
24  G40U A41G               Y
25   A6G U43G               N
26  A14U G19U               Y
27   U9A A16U               N
28   C3A G29U               Y
29  A14G U34A               Y
